Here, each record is paired with measured melting point data.

Solved entries:
{"columns": ["molecule", "melting point"],
 "data": [
  ["COc1cccc2[nH]cc(C3CN4CCC3CC4)c12 (centres undefined)", "193 to 195 °C"],
  ["COC(=O)CCCCCCCCCCCCCCCNc1ccc(C(=O)OC)cc1", "92 to 93 °C"],
  ["O=C1C(Cc2ncccc2Br)c2ccccc2C12COc1cc3c(cc12)OCCO3 (centres undefined)", "217 to 218 °C"],
  ["C=CCOC1(C(F)(F)F)CN(C2CC2)C(=O)Nc2ccc(Cl)cc21 (centres undefined)", "120 to 121 °C"],
  ["O=C(CNC(=O)c1cccc(-c2cccc3oc(Cc4cccc(C(F)(F)F)c4)cc23)c1)NCCO", "89 to 94 °C"]
]}

# input Output measured melting point for this item: CCOC(=O)COc1cc(F)ccc1[N+](=O)[O-]
# output 37 to 39 °C

# input Give the value of melting point reported for the following: CCC1C(C)=NN=C(c2ccc(OC)c(OC)c2)c2cc(OC)c(OC(C)C)cc21 (centres undefined)
# output 109 to 111 °C

# input Please report the measured melting point for COc1ccc(-c2c(-c3ccccc3)nn3ccccc23)nn1
# output 203 to 205 °C

# input Assign melting point to the following record: COCCNC(=S)n1nc(Oc2ncc(C(F)(F)F)cc2Cl)cc1C
# output 108 to 109 °C

# input Give melting point for CCCCCCCNC(=O)N(C)c1cccc(-c2ccc(C=C(OC)C(=O)O)cc2OCCCC)c1
# output 99 °C

# input Return melting point (reported value) for this molecule: COc1cc(OCc2ccccc2)ccc1-c1nc2ncccc2[nH]1
# output 244 °C

# input State, in one line, measured melting point of COc1cc2c(nc1OC)c(-c1cc3cc(F)cnc3[nH]1)cn2CCN1CCOCC1
# output 218 °C

# input Give a short answer stating reported melting point for CCc1ccc2c(c1)CC(=O)N2c1c(C)cccc1Cl .
# output 125 to 126 °C

# input Provide one value: measured melting point of COc1ccc2c(c1)Sc1ccccc1C(=O)N2
# output 232 to 234 °C

* * *

property-measured: melting point

Worked cases, melting point given:
{"columns": ["compound", "melting point"],
 "data": [
  ["Cc1ccccc1-c1c(CNC(=O)Nc2ccc(F)cc2F)oc2ccc(Cl)cc12", "178 to 180 °C"],
  ["CCOC(=O)c1cccc(OCCCCCCCc2cc(C)no2)c1", "16 to 18 °C"],
  ["CCc1nc2c(s1)CC(COS(=O)(=O)c1ccc(C)cc1)CC2 (stereo not given)", "54 to 56 °C"],
  ["Cc1cccc(N2C(=O)C(=NO)c3ccccc32)c1C", "215 to 216 °C"],
  ["CCOC(=O)C(=CC(=CN(C)C)C(=O)C(=O)OC)Sc1ccccc1", "118 °C"],
  ["COCN(c1cccc2cc(-c3nc[nH]n3)n(COC)c12)S(=O)(=O)c1cccs1", "97 to 99 °C"],
  ["CCCC(CCC)n1[nH]c(Cc2c(C)n(C(=O)c3ccc(Cl)cc3)c3ccc(OC)cc23)cc1=O", "167 to 168 °C"],
  ["CCCc1ncc(CO)c(NCc2ccc(-c3ccccc3-c3nnnn3C(c3ccccc3)(c3ccccc3)c3ccccc3)cc2)n1", "134 to 137 °C"]
]}

Now for a further compound.
# input Note down melting point recorded for CSc1cccc2c1CC(=O)N2
# output 198 °C
